System: CCRF-CEM leukemia
measurement.notes: NCI-60 one-dose screen, 48 h (100 = growth as untreated, 0 = no growth, -100 = all killed)
run.conditions: 10 µM unless noted
This is part of a sample that, as a whole, favours compounds with a hit. Of some 83,000 tested, about 20% had one in any assay.
Strictly below 10% in growth: fulfilled. Otherwise: not fulfilled.

Determine whether this compound shows growth lower than 10% (ties excluded): CCN(CC)c1ccc(/C=N\NC(=O)c2cccc(Nc3ccnc(C(F)(F)F)c3)c2)c(O)c1
not fulfilled

Would you kindly verify if growth of CCOC(=O)c1n[nH]n2c1nc(=O)c1cnn(C)c12 is strictly less than 10%?
not fulfilled

A record lists Cn1cc(-c2nonc2-c2c[nH]c3ccc(F)cc23)c2cc(Br)ccc21 . Is its growth below 10%?
not fulfilled

Record Cc1ccc(S(=O)(=O)n2cc(C3C(Cl)C(=O)N3c3ccc(N4CCOCC4=O)cc3)c3ccccc32)cc1 (stereo not drawn) : is its growth strictly below 10%?
not fulfilled

State whether 10% exceeds growth recorded for N#Cc1c(N2CCOCC2)nc(=S)[nH]c1-c1ccccc1 .
not fulfilled

Here's an entry: Clc1nccc2c(-c3csc(-c4c[nH]c5ccccc45)n3)c[nH]c12 . Is its growth below 10%?
not fulfilled

Lab log: compare recorded growth with 10%; is it strictly lower for C=CCn1c(SCC(=O)Nc2ccc(C(=O)/C=C/c3ccc(OC)cc3)cc2)nnc1-c1ccccc1 ?
not fulfilled

Quick check: growth of Cn1cc(-c2nonc2-c2c[nH]c3ccccc23)c2ccccc21 under 10%?
fulfilled

Record COc1cc(N2C(=O)[C@H](c3ccccc3)C2c2ccc(SC)cc2)cc(OC)c1OC (stereo partly drawn) : is its growth strictly below 10%?
fulfilled

Does O=C(CCCCNC(=O)c1cc(=O)c(O)co1)Nc1ccccc1 have growth strictly under 10%?
fulfilled

Here's an entry: C=CC(=O)NCCOc1cccc(Nc2cc(NCCCNC(=O)C3CCC3)c(Br)cn2)c1 . Is its growth below 10%?
fulfilled

Is it true that growth reported for NC(=S)N/N=C/c1cn(-c2ccccc2)nc1-c1cc2ccccc2oc1=O is less than 10%?
not fulfilled

Please determine if CCC(CC)(N(CC(=O)O)CC(=O)O)C(CC)(CC)N(CC(=O)O)CC(=O)O is below 10% in terms of growth.
not fulfilled

is_below(growth, 10%) for N/C(=N\c1nc2ccccc2s1)NC(=NC1CCCCC1)NC1CCCCC1 ?
fulfilled

Lab note: confirm whether the reported growth for this compound is below 10%, equality not counting. compound: N#Cc1c(-c2ccccc2)cc(-c2ccccc2)n(CCCC(=O)NO)c1=O
not fulfilled

Does COc1ccc2cc(-c3ccc(-c4ccc(C(=N)N)s4)s3)ccc2c1 have growth strictly under 10%?
fulfilled

growth strictly < 10% for this compound? COc1cc2c(/C=C3\C(=O)Nc4ccccc43)c(C(=O)O)[nH]c2cc1C
not fulfilled

Does the reported growth of N#CC(C#N)N=Nc1ccc(Cl)cc1Cl stay below 10%?
not fulfilled

Strictly below 10% in growth? COC(=O)C1=Nc2ccc(F)cc2/C1=C\c1sc(Nc2ccc(O)cc2)nc1O
not fulfilled

For this compound, is growth lower than 10%? O=C1/C(=C/c2cccc([N+](=O)[O-])c2)COc2ccc(O)cc21
fulfilled

Regarding O=C1NC(=C(Cl)Cl)/C(=N/S(=O)(=O)NCCc2c[nH]c3ccccc23)N1 , kindly confirm whether its growth is beneath 10%.
fulfilled

Does the reported growth of the following compound sit strictly below 10%? COc1cc2cc(NCc3ccc(OC(F)F)cc3)nc(C)c2cc1OC
not fulfilled

Please state whether growth is below 10% for Cc1cccc(NC(=O)CSc2nc3ccc([N+](=O)[O-])cc3[nH]2)c1
not fulfilled

Decide: growth of CCOC(=O)CSc1nc2sc3c(c2c(=O)n1-c1ccc([N+](=O)[O-])cc1)CCCCC3 strictly below 10%?
not fulfilled

Say whether its growth is strictly beneath 10%. Entry: CN1C(=O)/C(=C/c2ccc(C(=O)Nc3ncc(Cc4ccc(F)cc4)s3)cc2)SC1=S
not fulfilled

Lab note: confirm whether the reported growth for this compound is below 10%, equality not counting. compound: COc1ccc(NC(=O)c2cccc(C3CCc4c(cc(OC)c(OC)c4OC)O3)c2)cc1 (stereo not drawn)
fulfilled

Please let me know if C#CCOc1ccc2ncnc(Nc3cccc(NC(=O)CCl)c3)c2c1 shows growth below 10%.
not fulfilled

Given Cc1ncc(C(=O)Nc2ccc(CN3CCN(C)CC3)c(C(F)(F)F)c2)cc1C#Cc1cnc(N)c2ccncc12 , is recorded growth strictly lower than 10%?
fulfilled

Threshold test, growth < 10%: CCC/C(=N\NC(N)=O)C(OC)OC
not fulfilled

For CCOC(=O)n1cc(-c2nonc2-c2cn(C)c3ccccc23)c2ccccc21 , is the recorded growth below the cut-off of 10%?
not fulfilled

Check if growth falls below 10% for COC(=O)/C(CCC=C(C)C)=C1\[C@@H](OC(C)=O)C[C@@]2(C)[C@H]1CC(=O)[C@H]1[C@@]3(C)CCC(N4CCCC4)[C@@H](C)[C@@H]3CC[C@@]12C (stereo partly drawn) .
not fulfilled

In plain terms, does CO[C@H](C(=O)[C@@H](O)[C@@H](C)O)[C@@H]1Cc2cc3cc(O[C@H]4C[C@@H](O[C@H]5C[C@@H](O)[C@H](O)C(C)O5)[C@H](O)C(C)O4)c(C)c(O)c3c(O)c2C(=O)[C@H]1O[C@H]1C[C@@H](O[C@H]2C[C@@H](O[C@H]3C[C@@H](OC)[C@H](O)C(C)O3)[C@@H](O)C(C)O2)C(O)(O)C(C)O1 (stereo partly drawn) come in under 10% for growth?
not fulfilled
